assay explanation: Toxicity liver stage against HepG2, at 10uM
Format: cell-based
Design: test concentration 10 uM, cell line HepG2-A16-CD81EGFP
condition summary: human, HepG2-A16-CD81EGFP cells; read-out: INHIBITION

>  <compound>
CNS(=O)(=O)c1cnccc1N1CCN(C(C)C)CC1

>  <cytotoxicity at 10 µM (%)>
-2.02

$$$$
>  <compound>
CCCC(O)CN1CCC(=O)N(CCOC)Cc2cc3c(cc21)OCO3 (configuration not stated)

>  <cytotoxicity at 10 µM (%)>
6.91

$$$$
>  <compound>
Cc1cnn(CC2CN(CCS(=O)(=O)C(F)(F)F)CCO2)c1 (configuration not stated)

>  <cytotoxicity at 10 µM (%)>
2.5

$$$$
>  <compound>
CCn1ncc2c1NC(=O)CC2c1cnc(-c2ccccn2)nc1 (configuration not stated)

>  <cytotoxicity at 10 µM (%)>
-7.76

$$$$
>  <compound>
COCc1ncn2c1CN(C(=O)c1cnc3ccccc3c1)CC2

>  <cytotoxicity at 10 µM (%)>
-2.39

$$$$
>  <compound>
CCCS(=O)(=O)N1CCN(c2ccnc(N3CCCC3)n2)CC1

>  <cytotoxicity at 10 µM (%)>
-11.3

$$$$
>  <compound>
c1ccc(Cc2noc(CN3CCCC3Cn3cccn3)n2)cc1 (configuration not stated)

>  <cytotoxicity at 10 µM (%)>
-2.57

$$$$
>  <compound>
O=C(NCc1nc2cc(F)ccc2[nH]1)c1ccc[nH]1

>  <cytotoxicity at 10 µM (%)>
11.9

$$$$
>  <compound>
O=C(CC1CCC1)N1CCCC(CO)(CC2CC2)C1 (configuration not stated)

>  <cytotoxicity at 10 µM (%)>
7.18

$$$$
>  <compound>
COc1cc2c(cc1CNC(Cc1cccs1)c1nccs1)OCO2 (configuration not stated)

>  <cytotoxicity at 10 µM (%)>
-1.88

$$$$
>  <compound>
CC(NCc1ccc(OCC(N)=O)cc1)c1ccc(Cl)cc1Cl (configuration not stated)

>  <cytotoxicity at 10 µM (%)>
13.1

$$$$
>  <compound>
CCn1ccnc1CN1CCCC1c1c(C)nn(C)c1OC (configuration not stated)

>  <cytotoxicity at 10 µM (%)>
-0.386

$$$$

====

Reported cytotoxicity at 10 µM is given for each of the following compounds.
assay explanation: Toxicity liver stage against HepG2, at 10uM
Format: cell-based
Parameters: test concentration 10 uM, cell line HepG2-A16-CD81EGFP
condition summary: human, HepG2-A16-CD81EGFP cells; read-out: INHIBITION

>  <compound>
CCC1CN(C(=O)c2cnc(-c3ccccc3)s2)CCO1 (configuration not stated)

>  <unit of measure>
%

>  <cytotoxicity at 10 µM>
-2.63

$$$$
>  <compound>
CCc1ccc(C(=O)N2CCCC(n3cncn3)C2)o1 (configuration not stated)

>  <unit of measure>
%

>  <cytotoxicity at 10 µM>
-9.78

$$$$
>  <compound>
Cn1ccc(CN2CCC(NC(=O)NC3CCCCC3)CC2)cc1=O

>  <unit of measure>
%

>  <cytotoxicity at 10 µM>
-6.26

$$$$
>  <compound>
Cc1nc2cc(O)nn2c(C)c1CCC(=O)N(C)Cc1cscn1

>  <unit of measure>
%

>  <cytotoxicity at 10 µM>
-2.64

$$$$
>  <compound>
CCOCCCNc1nc(CS(=O)(=O)c2ccccc2)cs1

>  <unit of measure>
%

>  <cytotoxicity at 10 µM>
9.75

$$$$
>  <compound>
CC(C)CN1CCC(NC(=O)c2ccc(Cl)cc2Cl)CC1

>  <unit of measure>
%

>  <cytotoxicity at 10 µM>
-8.33

$$$$
>  <compound>
Cc1csc(CN2CC(CO)Oc3ccccc32)n1 (configuration not stated)

>  <unit of measure>
%

>  <cytotoxicity at 10 µM>
6.62

$$$$
>  <compound>
Fc1cccc(N2CCOC3(CCCN(c4nncs4)C3)C2)c1 (configuration not stated)

>  <unit of measure>
%

>  <cytotoxicity at 10 µM>
4

$$$$
>  <compound>
Cc1cnc(NC(=O)N2CCOCC2)s1

>  <unit of measure>
%

>  <cytotoxicity at 10 µM>
-1.14

$$$$
>  <compound>
O=C1CC(c2ccco2)c2sc(C(=O)O)c(-c3ccccc3)c2N1 (configuration not stated)

>  <unit of measure>
%

>  <cytotoxicity at 10 µM>
19.1

$$$$
>  <compound>
Cc1ccc(CN2C[C@@H](OCc3ccccn3)[C@H]3COC[C@H]32)o1

>  <unit of measure>
%

>  <cytotoxicity at 10 µM>
-114

$$$$
>  <compound>
O=C(NCCOC1CCCCC1)c1ccc(-c2ccco2)[nH]c1=O

>  <unit of measure>
%

>  <cytotoxicity at 10 µM>
-8.08

$$$$
